- Test System: Amine oxidase [flavin-containing] A (Homo sapiens)
pIC50: −log10 of the molar value.
Property Measured: pIC50

I = CN1CCN(C(=O)CN[C@@H]2C[C@H]2c2ccc(F)nc2)CC1
II = CN1CCN(C(=O)CN[C@@H]2C[C@H]2c2ccc(OCc3ccccc3)cc2)CC1
Qu. Hi there, can you help? I need to know whether I or II has lower measured pIC50. Write down the label attached to your selection.
Ans. I
(I: 4.89, II: 6.29)

###

- Test System: MAO-B (Homo sapiens, UniProt P27338)
- Method Description: Inhibition of human recombinant MAO-B expressed in Pichia pastoris using benzylamine as substrate at 100 uM by horseradish peroxidase coupled-assay relative to control
- Experimental Context: probe benzylamine
Property Measured: inhibition at 100 µM (%)
// units = %; emit number, no label

Per the reported MAO-B (Homo sapiens, UniProt P27338) data, NC1CC1c1ccc(NC(=O)c2ccc(NC(=O)OCc3ccccc3)cc2)cc1 (stereo unspecified) has inhibition at 100 µM of 8

###

Heads up, these molecules all have Ki values measured for Lysine-specific histone demethylase 2 (Homo sapiens, UniProt Q8NB78).

Before answering, review these 2 worked examples.
| Molecule | Ki |
| --- | --- |
| CN1CCN(C(=O)CNC2CC2c2cc(F)cc(F)c2OCc2ccccc2)CC1 (stereo not drawn) | > 250 µM |
| NC1CC1c1cc(F)cc(F)c1OCc1ccccc1 (stereo not drawn) | > 250 µM |

The reported Ki value, Lysine-specific histone demethylase 2 (Homo sapiens, UniProt Q8NB78), for N[C@H]1CCN(C(=O)CNC2CC2c2cc(F)cc(F)c2OCc2ccccc2)C1 (stereo partly drawn) reads > 250 µM

###

- Test System: Amine oxidase [flavin-containing] B (Homo sapiens, UniProt P27338)
- Method Description: biochemical
pIC50: −log10 of the molar value.
Property Measured: pIC50

Recorded pIC50 (compound NC1CC1c1ccc(OCC[C@H](NC(=O)c2ccccc2)C(=O)NCc2ccccc2)cc1 (stereo partly specified) ): < 3.00

###

- Test System: UniProt P21397
- Method Description: Inhibition of human MAO-A expressed in baculovirus infected BTI insect cells by fluorescence method
pIC50: −log10 of the molar value.
Property Measured: pIC50

Example entries begin here.
| Compound | pIC50 |
| --- | --- |
| COc1ccccc1CNC1CC12CCc1ccccc12 (centres undefined) | 5.23 |
| COc1ccc(Br)cc1CNC1CC12CCc1ccccc12 (centres undefined) | 5.43 |

A = COc1ccc(CNC2CC23CCc2ccccc23)c(Cl)c1OC (centres undefined)
B = Fc1ccccc1CNC1CC12CCc1ccccc12 (centres undefined)
Qu. Look at A and B . Which one has the lower recorded pIC50 number? # respond with the chosen item's label
Ans. A

###

- Test System: Amine oxidase [flavin-containing] B (Homo sapiens)
- Sequence (P27338 whole entry): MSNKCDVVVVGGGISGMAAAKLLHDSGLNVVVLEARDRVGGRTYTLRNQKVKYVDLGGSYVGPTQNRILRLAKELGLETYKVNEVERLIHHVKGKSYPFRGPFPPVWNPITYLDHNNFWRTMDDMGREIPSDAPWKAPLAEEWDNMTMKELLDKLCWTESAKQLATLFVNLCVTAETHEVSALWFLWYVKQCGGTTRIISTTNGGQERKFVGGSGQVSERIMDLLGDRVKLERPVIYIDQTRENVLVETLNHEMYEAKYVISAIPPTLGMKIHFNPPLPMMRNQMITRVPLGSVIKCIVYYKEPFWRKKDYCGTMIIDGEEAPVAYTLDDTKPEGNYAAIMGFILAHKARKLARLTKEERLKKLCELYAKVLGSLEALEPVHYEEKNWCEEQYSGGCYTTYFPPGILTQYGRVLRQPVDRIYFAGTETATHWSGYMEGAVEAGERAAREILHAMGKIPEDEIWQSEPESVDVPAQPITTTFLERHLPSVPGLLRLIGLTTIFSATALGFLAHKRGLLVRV
- Method Description: biochemical
Reported Ki values for a set of compounds
Give just the number in µM; leave the unit off.

| Compound | Ki [µM] |
| --- | --- |
| NC1CC1c1c(F)c(F)c(F)c(F)c1F (configuration not stated) | 8.3 |

For the next question, use this compound.
So, NC1CC1c1cccc(F)c1OCc1ccccc1 (configuration not stated) ? Its Ki was 42

###

- Test System: Lysine-specific histone demethylase 1A (Homo sapiens)
Property Measured: IC50 (nM)
Report only the number, with the unit nM understood.

Record CN1CCN(C(=O)CN[C@@H]2C[C@H]2c2ccc(F)nc2)CC1 / Lysine-specific histone demethylase 1A (Homo sapiens), IC50 recorded as 31

###

- Tested on: HeLa
- Method Description: Antiproliferative activity against human HeLa cells after 48 hrs by MTT assay
- Format: functional
Property Measured: GI50 (µM)

Worked set:
| Compound | GI50, µM |
| --- | --- |
| O=C(N[C@@H](CCCCNC1CC1c1ccccc1)C(=O)NCc1cccc(C(F)(F)F)c1)c1ccc(-c2ccccc2)cc1 (stereo not given in full) | 4.1 |
| NC1CC1c1ccc(OCC[C@H](NC(=O)c2ccccc2)C(=O)NCc2ccccc2)cc1 (stereo not given in full) | 6 |
| NC1CC1c1cccc(OCC[C@H](NC(=O)c2ccccc2)C(=O)NCc2ccccc2)c1 (stereo not given in full) | 6 |

a = O=C(N[C@@H](CCCCNC1CC1c1ccccc1)C(=O)NCc1ccccc1)c1ccc(-c2ccccc2)cc1 (stereo not given in full)
b = O=C(N[C@@H](CCCCNC1CC1c1ccccc1)C(=O)NCc1ccccc1)c1ccccc1 (stereo not given in full)
Qu. Please indicate which item has the smaller measured GI50: a versus b State the label of the item chosen.
Ans. a

###

- Test System: Amine oxidase [flavin-containing] B (Homo sapiens, UniProt P27338)
- Method Description: Inhibition of human MAO-B expressed in baculovirus infected BTI insect cells by fluorescence method
Property Measured: IC50 (µM)

| Molecule | IC50 [µM] |
| --- | --- |
| Fc1ccccc1CNC1CC12CCc1ccccc12 (centres undefined) | 32 |

P = COc1ccc(CNC2CC23CCc2ccccc23)c(Cl)c1OC (centres undefined)
Q = COc1ccc(Br)cc1CNC1CC12CCc1ccccc12 (centres undefined)
R = COc1ccccc1CNC1CC12CCc1ccccc12 (centres undefined)
Qu. // ranking: key=IC50, reverse=True Labels, ranked as asked.
Ans. R, P, Q

###

- Test System: UniProt P21397
- Sequence (P21397 whole entry): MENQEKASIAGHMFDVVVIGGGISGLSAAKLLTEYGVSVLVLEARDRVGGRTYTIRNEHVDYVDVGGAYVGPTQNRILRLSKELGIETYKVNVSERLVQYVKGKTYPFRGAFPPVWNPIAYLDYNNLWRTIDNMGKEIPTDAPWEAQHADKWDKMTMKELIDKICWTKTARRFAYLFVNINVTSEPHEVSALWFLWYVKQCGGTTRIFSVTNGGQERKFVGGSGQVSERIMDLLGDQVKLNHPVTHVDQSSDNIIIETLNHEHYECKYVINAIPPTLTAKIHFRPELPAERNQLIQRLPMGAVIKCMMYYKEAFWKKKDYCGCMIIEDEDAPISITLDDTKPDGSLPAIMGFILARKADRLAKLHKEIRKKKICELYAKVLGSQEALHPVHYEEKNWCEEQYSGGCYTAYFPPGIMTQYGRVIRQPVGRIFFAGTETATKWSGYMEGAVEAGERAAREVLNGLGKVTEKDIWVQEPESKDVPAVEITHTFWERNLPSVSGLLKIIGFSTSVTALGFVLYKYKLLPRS
- Method Description: Inhibition of human recombinant MAO-A expressed in Pichia pastoris using kynuramine as substrate at 100 uM by horseradish peroxidase coupled-assay relative to control
- Experimental Context: probe kynuramine
Property Measured: inhibition at 100 µM (%)
Please give a number only; it is taken to be in %.

Query NC1CC1c1ccc(NC(=O)c2ccc(NC(=O)OCc3ccccc3)cc2)cc1 (stereo unspecified) on UniProt P21397; inhibition at 100 µM returned: 37

###

- Test System: Amine oxidase [flavin-containing] A (Homo sapiens)
- Sequence (P21397 whole entry): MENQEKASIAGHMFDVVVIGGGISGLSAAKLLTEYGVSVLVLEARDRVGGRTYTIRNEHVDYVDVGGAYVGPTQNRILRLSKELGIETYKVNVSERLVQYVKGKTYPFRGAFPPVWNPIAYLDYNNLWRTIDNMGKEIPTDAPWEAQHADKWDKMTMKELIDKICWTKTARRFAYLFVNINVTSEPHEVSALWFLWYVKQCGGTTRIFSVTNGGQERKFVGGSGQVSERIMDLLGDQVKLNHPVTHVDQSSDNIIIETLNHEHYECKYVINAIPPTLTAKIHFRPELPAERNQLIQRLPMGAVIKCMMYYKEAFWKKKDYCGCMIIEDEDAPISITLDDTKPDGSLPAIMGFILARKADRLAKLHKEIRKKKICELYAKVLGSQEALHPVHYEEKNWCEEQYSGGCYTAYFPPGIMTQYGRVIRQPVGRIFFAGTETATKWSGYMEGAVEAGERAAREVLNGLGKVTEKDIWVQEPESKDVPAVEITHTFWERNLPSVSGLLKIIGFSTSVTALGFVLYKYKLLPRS
- Method Description: biochemical
pIC50: −log10 of the molar value.
Property Measured: pIC50

1 = O=C(N[C@@H](CCCCNC1CC1c1ccccc1)C(=O)NCc1ccccc1)c1ccc(-c2ccccc2)cc1 (some centres not stated)
2 = NC1CC1c1ccc(OCC[C@H](NC(=O)c2ccccc2)C(=O)NCc2ccccc2)cc1 (some centres not stated)
Qu. Which record shows the lower pIC50: the first, 1 , or the second, 2 ? Kindly give the label for the entry you pick.
Ans. 2
